# PROCEDURE_DETAILS: RP, Phenomenex Luna Omega Polar C18, 100 × 2.1 mm, 1.6 µm, 40 °C, 0.5 mL/min, estimated dead time 0.44 min; A: water + 0.1% formic acid + 10 mM ammonium formate; B: acetonitrile; gradient (min/%B) 0/5 8/20 10/100 12/100 12.1/5 14/5
# RUN_CONDITIONS: stereoisomer not certain
METRIC_NAME: LC retention time (min)

O=S(=O)(O)Oc1ccccc1O [Catechol O-sulfate]
1.79
O=c1c(-c2ccc(O)cc2)coc2cc(O)cc(O)c12 [Genistein]
9.62
Oc1cc(O)c2c(c1)OC1(c3ccc(O)c(O)c3)Oc3cc(O)c4c(c3C2C1O)OC(c1ccc(O)c(O)c1)C(O)C4 (centres undefined) [Procyanidin A2]
8.12
O=c1ccc2c(O)c3ccoc3cc2o1 [Bergaptol]
9.43

* * *

# PROCEDURE_DETAILS: RP, Waters ACQUITY UPLC HSS T3, 100 × 2.1 mm, 50 °C; A: water + 0.1% formic acid, pH 3; B: 30% methanol + 70% acetonitrile + 0.1% formic acid, pH 3; gradient (min/%B) 0/5 1/8 2/15 3/40 4/70 4.5/100 5/100 6.4/100 6.6/5 6.8/5 7/5
# RUN_CONDITIONS: stereoisomer not certain
# reported LC retention time; entries follow
METRIC_NAME: LC retention time (min)

Cc1ccc(OC2OC(C(=O)O)C(O)C(O)C2O)cc1 (stereo unspecified) [p-Cresol glucuronide]
3.44
NC(=O)NCCC[C@H](N)C(=O)O
0.483
NCCc1ccc(O)c(O)c1
0.706
Cc1ncc(CO)c(C=O)c1O
2.61
Cn1c(=O)c2[nH]c(=O)[nH]c2n(C)c1=O
2.01
C[N+]1(C)CCCC1C(=O)[O-] (stereo unspecified) [Stachydrine]
0.545

* * *

LC retention time reference
# PROCEDURE_DETAILS: RP, 100 × 0.5 mm, 2.7 µm, 45 °C, 0.015 mL/min, estimated dead time 0.83 min; A: water + 0.9% formic acid; B: acetonitrile + 0.9% formic acid; gradient (min/%B) 0/1 0.5/1 4/95 4.5/1 5/1
# RUN_CONDITIONS: stereoisomer not certain
METRIC_NAME: LC retention time (min)

Oc1cc(O)c2cc(O)c(-c3ccc(O)c(O)c3)[o+]c2c1 [Cyanidin]
3.19
Oc1cc(O)c2c(c1)OC(c1ccc(O)c(O)c1)C(O)C2 (single isomer, unassigned; (-)) [(-)-Epicatechin]
2.32
O=c1cc(-c2ccc(O)c(O)c2)oc2cc(O)cc(O)c12 [Luteolin]
2.97
O=S(=O)(O)Oc1c(O)cccc1O [Pyrogallol 2-O-sulfate]
2.2
O=c1ccc2c(O)c3ccoc3cc2o1 [Bergaptol]
3.08
CC12CCc3occc3C1CCC13CC(CCC12)C(O)(CO)C3 (configuration not stated) [Cafestol]
4.04
O=c1cc(-c2ccc(O)cc2)oc2cc(OC3OC(CO)C(O)C(O)C3O)cc(O)c12 (configuration not stated) [Apigenin 7-O-glucoside]
2.89
CC1OC(OC2C(O)C(OCCc3ccc(O)c(O)c3)OC(CO)C2OC(=O)C=Cc2ccc(O)c(O)c2)C(O)C(O)C1O (configuration not stated) [Verbascoside]
2.44
O=C(O)C1OC(Oc2c(-c3ccc(O)cc3)oc3cc(O)cc(O)c3c2=O)C(O)C(O)C1O (configuration not stated) [Kaempferol-3-O-glucuronide]
2.39
O=c1oc2cc(O)ccc2c2ccccc12 [Urolithin B]
3.47
CC1OC(OC2C(Oc3cc(O)c4c(c3)OC(c3ccc(O)cc3)CC4=O)OC(CO)C(O)C2O)C(O)C(O)C1O (configuration not stated) [Naringin]
2.56
COc1cc(C=O)ccc1O [Vanillin]
2.71
O=C(C=Cc1ccc(O)c(O)c1)OC(Cc1ccc(O)c(O)c1)C(=O)O (configuration not stated) [Rosmarinic acid]
2.28
O=c1c(-c2ccc(O)cc2)coc2cc(O)cc(O)c12 [Genistein]
3.17
O=C(O)CCc1ccc(O)c(O)c1 [Dihydrocaffeic acid]
2.4
O=c1c(O)c(-c2ccc(O)cc2)oc2cc(O)cc(O)c12 [Kaempferol]
3.2
C[n+]1cccc(C(=O)[O-])c1 [Trigonelline]
2.72
